Target: T1, FZD9 cysteine-rich domain (CRD), MYC-tagged and GPI-anchored on CHO cells (human, UniProt O00144 35-161, GPI anchor)
T1 construct: also called FZD9 CRD; CHO-myc-FZDGPI; not shown: MYC tag and GPI anchor signal
T1 sequence: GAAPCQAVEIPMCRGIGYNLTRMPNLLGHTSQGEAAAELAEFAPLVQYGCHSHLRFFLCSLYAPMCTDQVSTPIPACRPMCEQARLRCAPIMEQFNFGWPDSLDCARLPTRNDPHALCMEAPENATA
Experiment: flow cytometry, CHO-CRD cells;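 also: flow cytometry of Fab binding to CHO cells overexpressing a Frizzled CRD, with binding defined as median fluorescence over twice that of CHO cells lacking any Frizzled CRD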
Give median fluorescence for every item shown.
Number only, no unit.

What does the record list as median fluorescence for Fab-2921 (Fab, V domains shown, Fab) VH: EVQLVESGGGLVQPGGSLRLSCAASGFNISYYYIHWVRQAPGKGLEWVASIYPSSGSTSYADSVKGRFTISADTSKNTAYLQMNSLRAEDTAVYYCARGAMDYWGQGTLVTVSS VL: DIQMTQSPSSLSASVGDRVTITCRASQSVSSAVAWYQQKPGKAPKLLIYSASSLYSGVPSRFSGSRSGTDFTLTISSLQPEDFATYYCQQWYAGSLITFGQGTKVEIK ?
2.94

What does the record list as median fluorescence for Fab-2924 (Fab, V domains shown, Fab; also called Fv-2924) VH: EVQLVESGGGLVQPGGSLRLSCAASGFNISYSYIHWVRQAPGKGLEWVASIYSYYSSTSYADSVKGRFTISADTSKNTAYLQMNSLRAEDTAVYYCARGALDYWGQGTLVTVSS VL: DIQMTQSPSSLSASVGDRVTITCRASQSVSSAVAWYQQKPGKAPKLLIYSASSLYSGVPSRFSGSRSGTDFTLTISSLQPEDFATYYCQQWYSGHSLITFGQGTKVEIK ?
4.49
